These entries and their values trace back to paper PMC7156458.

- TARGET OR SYSTEM: Aβ42 (Homo sapiens)
- Sequence (P05067 672-713): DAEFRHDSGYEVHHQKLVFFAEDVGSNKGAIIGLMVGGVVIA
- EXPERIMENT SUMMARY: Th-T (thioflavin-T) assay of Aβ42 aggregation
- Type: biochemical
- APPLIED CONDITIONS: concentration 50, unit not given; time-course reading M135
Mark t for reported Th-T fluorescence of Aβ42 with compound, mean of three wells (Fig. 7a source data) of 0.8 or greater; mark f for anything smaller.

The following compounds have reported results that may help.
[[record]]
compound = "C=C1CC[C@@H]2[C@](C)(CC[C@H]3O[C@H](C=C(C)C)C[C@@]23C)[C@@H]1Cc1c(OC)oc(CO)c(C(=O)OC)c1=O"
class = "f"

[[record]]
compound = "C=C1CC[C@@H]2[C@](C)(CC[C@H]3O[C@H](C=C(C)C)C[C@@]23C)[C@@H]1Cc1c(OC)oc(CO)c(C)c1=O"
class = "t"


In plain terms: is recorded Th-T fluorescence of Aβ42 with compound, mean of three wells (Fig. 7a source data) at least 0.8 for C=C1CCC2C(C)(CCC=C(C)C)C(O)CCC2(C)C1Cc1c(OC)oc(CO)c(C(=O)OC)c1=O (centres unmarked) ?
f

Determine whether measured Th-T fluorescence of Aβ42 with compound, mean of three wells (Fig. 7a source data) meets or exceeds 0.8 for C=C1CCC2C(C)(CCC=C(C)C)C(O)CCC2(C)C1Cc1c(OC)oc(CO)c(C)c1=O (centres unmarked)
t
